- testName: chemical genetic growth profiling, strain panel (AID 1159580);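 note: tested at 20 µM; growth read once vehicle control cultures reached saturation at 30 °C; 1 = growth at the plate median or of vehicle wells; lower values mean less growth of the strain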
- conditionContext: S. cerevisiae deletion strains, growth OD, locus YOL078W, strain AVO1, hits give low values
The campaign covered roughly 5,500 compounds. About 2,000 (36%) were called active. Another 18% or so got no clear call; they are omitted. The list shows a part of the results.
Property: normalized growth; scope: individual compounds
Answer field: number only, no words.

Examples with their reported normalized growth follow.
compound	measuredNumber
O=C1c2cccc3c(Sc4ccccc4)ccc(c23)C(=O)N1NCCO	0.911
Cc1ccc2nc(-c3ccc4c(c3)OCCO4)cn2c1	0.98
Cc1c(C)c(C)c(C(=O)c2ccc(N=Cc3cc(Cl)cc(Cl)c3O)cc2)c(C)c1C	0.94
Clc1ccc(CN2CCN(c3cccc4[nH]ccc34)CC2)cc1Cl	0.996
O=C(CSC1=NNC(c2ccccn2)S1)Nc1ccccc1 (stereo unspecified)	0.995

Continue with the compound presented below.
[in] Item C#CCSC1=NNC(c2ccccn2)S1 (stereo unspecified) has what recorded normalized growth?
[out] 0.527
